# Tested on: NCI-H23 lung
# EXPERIMENTAL_PROTOCOL: NCI tumour cell line growth inhibition, 48 h
Hi there, I'd appreciate the recorded TGI for every entry that follows.

MOLECULE | TGI
Cc1c2c(n3c(nc4ccccc43)c1C#N)SCC2 | > 10 µM
CN(C(=O)C12C3C4(C(=O)O)C1(C(=O)N(C)C(C)(C)C)C1C2(C(=O)O)C3(C(=O)N(C)C(C)(C)C)C14C(=O)N(C)C(C)(C)C)C(C)(C)C (stereo not given) | > 100 µM
C=CCCc1cc(OC)ccc1CN(C)C(C)(C)CO | > 100 µM
CCN(CC)CCn1c(=N)n(CC(O)c2ccc(Cl)c(Cl)c2)c2ccccc21 (stereo not given) | 32.5 µM
COC12C=C/C(=C(/C(=O)OCc3ccncn3)C(=O)CCCCCCCCC3(OC)C=C/C(=C(/C(=O)OCc4ccncn4)C(=O)CCCCCCCC1)O3)O2 | 0.944 µM
O=C(NCC1Nc2ccncc2S(=O)(=O)N1)c1ccc(Br)cc1 (stereo not given) | > 100 µM
CCN(CC)CCCCCCCCNc1c2ccc(Cl)cc2nc2ccc(OC)cc12 | 7.25 µM
NNC(=O)CC(=O)Nc1ccc(Cl)cc1 | > 100 µM

Would you mind listing TGI for each of the following molecules?
1. Cn1ccnc1CCc1ccc(F)cc1F
2. CO/C(=N\N=C\c1ccc(Cl)cc1)c1ccncc1

Result:
["> 100 µM", "> 100 µM"]

###

# Tested on: IGROV1 ovarian
# EXPERIMENTAL_PROTOCOL: NCI tumour cell line growth inhibition, 48 h; in the data active = GI50 below about 0.43 µM; inactive = the rest
Could you please pick one outcome from this set? y for active, n for inactive

MOLECULE | GROUP
CC/C(=C(\c1ccccc1)c1ccc(OCCN(C)C)cc1)c1ccccc1 | n

Request: Name the outcome recorded for CCc1nc(N)nc(N)c1-c1ccc(Cl)cc1 in the assay.
Result: n

Request: # outcome recorded in this test, key = CC(C)Oc1cc(OCC(=O)O)cc(C(=O)N(CCC(N)=O)C(=O)Nc2ccc(C(=O)O)cc2OC(C)C)c1
Result: n

Request: Call for entry O=C(Nc1ccc(Cl)cc1)NS(=O)(=O)c1ccc2c(c1)CCC2 :
Result: n

Request: Assay result, entry Cc1ccc(CCC(=O)Nc2ncc(Cc3cc(Cl)ccc3Cl)s2)o1 — outcome?
Result: y

Request: Which result was noted for this molecule in the test: C=C1C(=O)OC(CCCCCCCC)C1C(=O)O (stereo unspecified)
Result: n

###

# Test system: HCC-2998 colon
# EXPERIMENTAL_PROTOCOL: NCI tumour cell line growth inhibition, 48 h
ATTRIBUTE_MEASURED: TGI (µM)
One number for each entry, in µM.

MOLECULE | TGI [µM]
CCCC(Sc1nc(N)nc2nc[nH]c12)C(=O)O (stereo unspecified) | 76.9

State recorded TGI for all listed molecules.
1. CCN(CC)CCN(C)CC(C)(C)C(=O)/C=C/c1ccccc1
2. C=C1C(=O)OC(CCCCCCCC)C1C(=O)O (stereo unspecified)
3. O=C(CC(O)(c1ccccc1)c1ccc(Cl)cc1)NC(=O)c1ccccc1O (stereo unspecified)
4. [O-][n+]1onc2c3nn(-c4ccccc4)nc3ccc21

Result:
27.7
31.4
21.1
44.9

###

# System: SR leukemia
# EXPERIMENTAL_PROTOCOL: NCI tumour cell line growth inhibition, 48 h
Consider the following compounds; for each one, report its TGI.

COMPOUND | STUDY_SYSTEM | REPORTED
O=S(=O)(c1ccccc1)n1c(C(O)c2ccncc2)cc2ccccc21 (stereo unspecified) | SR leukemia | > 100 µM
Cc1cc2c(-c3nc4ccccc4[nH]3)c(O)c(O)cc2c(O)c1-c1c(C)cc2c(-c3nc4ccccc4[nH]3)c(O)c(O)cc2c1O | SR leukemia | > 50 µM
CO/C(=N\N=C\c1ccc(Cl)cc1)c1ccncc1 | SR leukemia | > 100 µM

The following compounds each have a reported value; give each one's TGI.
1. CCN(CC)CCN(C)CC(C)(C)C(=O)/C=C/c1ccccc1
2. Cc1cccc2c1C(=O)C1(Cc3ccccc3C1=O)C2 (stereo unspecified)
3. O=c1c(Cl)nsnc1Cl
4. CC(=O)OCC1OC(n2cc(F)c(=O)[nH]c2=O)C(OC(C)=O)C1OC(C)=O (stereo unspecified)
5. COc1cc(C2c3cc4c(cc3C(O)C3CCC(=O)N23)OCO4)cc(OC)c1OC (stereo unspecified)
6. COC(=O)C1Cc2c([nH]c3ccccc23)[C@H](CC(C)C)N1 (stereo partly specified)

Result:
1. 45.5 µM
2. > 100 µM
3. 4.43 µM
4. > 78.5 µM
5. > 100 µM
6. > 100 µM

Here are 2 compounds. What values of TGI were reported for them?
1. CC(C)c1ccc2c(c1)CCC1C(C)(C)[C@@H](O)CC[C@]21C (stereo partly specified)
2. COc1cc[c]([Hg][Cl])cc1

Result:
["33.4 µM", "4.13 µM"]

###

# System: K-562 leukemia
# EXPERIMENTAL_PROTOCOL: NCI tumour cell line growth inhibition, 48 h; in the data active = GI50 below about 0.43 µM; inactive = the rest
Mark one answer only. Choices: active, inactive

COMPOUND | GROUP
O=C(CCCCCCc1nc2ccc(Br)cc2[nH]1)NO | active
Cc1cc(O)c2c(c1)C[C@@H](O)C1=C2C(=O)c2c(O)ccc(OC3CC(O)C(OC4CC(OC5CCC(OC6CC(O)C(OC7CC(OC8CCC(O)C(C)O8)C(O)C(C)O7)C(C)O6)C(C)O5)C(O)C(C)O4)C(C)O3)c2C1=O (stereo not given in full) | active
O=P(O)(O)OC1C(OP(=O)(O)O)C(OP(=O)(O)O)C(OP(=O)(O)O)C(OP(=O)(O)O)C1OP(=O)(O)O (stereo not given) | inactive
CCN(CC)CCCCCCCCNc1c2ccc(Cl)cc2nc2ccc(OC)cc12 | active

Request: Just curious, what result did O=C1CCC/C=C\C[C@H]2C=C(Cl)C(=O)/C2=C/C[C@H](CCCCC(F)(F)F)OC(=O)CCC/C=C\C[C@H]2C=C(Cl)C(=O)/C2=C/C[C@H](CCCCC(F)(F)F)O1 get here?
Result: active

Request: // param item: FC(F)(F)c1ccc2nc(-c3nc(-c4ccccc4)n4ccccc34)[nH]c2c1 ; yields the recorded call
Result: inactive

Request: # fetch the recorded call for CC(C)Oc1cc(OCC(=O)O)cc(C(=O)N(CCC(N)=O)C(=O)Nc2ccc(C(=O)O)cc2OC(C)C)c1 here
Result: inactive

Request: Entry CCN(CC)CCn1c(=N)n(CC(O)c2ccc(Cl)c(Cl)c2)c2ccccc21 (stereo not given) : call = ?
Result: inactive

Request: GET /call?item= CC(C)(O)Cn1c(=O)c(Oc2ccc(F)cc2F)cc2cnc(NC3CCOCC3)nc21 returns the recorded outcome of this test.
Result: inactive

Request: Per the records of this test, what outcome belongs to O=c1ccc2nc(-c3ccccc3)nn(-c3ccccc3)c-2c1 ?
Result: active

Request: Outcome logged for C#Cc1cccc(NC(=O)Nc2ccccc2NC(=O)CCl)c1 in this assay:
Result: inactive

Request: Assay outcome for COc1ccc(CCNc2nc3ccccc3c3[nH]c4ccccc4c23)cc1OC : what was it?
Result: inactive

Request: Give the logged outcome of this assay for the following compound: COc1cc[c]([Hg][Cl])cc1
Result: inactive

Request: # outcome recorded in this test, key = CC[C@]1(O)C[C@@H]2CN(Cc3c([nH]c4ccccc34)[C@@](C(=O)OC)(c3cc4c(cc3OC)N(C)[C@H]3[C@@](O)(C(=O)OC)[C@H](OC(C)=O)[C@]5(CC)[C@@H]6C[C@@H]6CN6CC[C@]43[C@@H]65)C2)C1
Result: active

Request: // return assay outcome for COc1ccc(C(=O)c2cc3c(N)c(C(=O)Nc4cccc(Cl)c4)sc3nc2C)cc1
Result: inactive

###

# Tested on: OVCAR-5 ovarian
# EXPERIMENTAL_PROTOCOL: NCI tumour cell line growth inhibition, 48 h
Kindly supply the reported GI50 values for the records listed here.

Past entries and their recorded results:
MOLECULE | GI50
CC(C)(O)Cn1c(=O)c(Oc2ccc(F)cc2F)cc2cnc(NC3CCOCC3)nc21 | > 25 µM
Cc1nc2c(cnn2-c2ccnc3c(C(F)(F)F)cccc23)c(=O)o1 | > 100 µM
O=P(O)(O)OC1C(OP(=O)(O)O)C(OP(=O)(O)O)C(OP(=O)(O)O)C(OP(=O)(O)O)C1OP(=O)(O)O (centres undefined) | > 2000 µM

Okay, here is my list. What is GI50 for each of these?
1. COc1ccc(C(=O)CC2(O)C(=O)Nc3c(Cl)ccc(Cl)c32)cc1 (centres undefined)
2. FC(F)(F)c1ccc2nc(-c3nc(-c4ccccc4)n4ccccc34)[nH]c2c1
3. CCc1cc(C(N)=O)ccc1-n1nc(C(C)C)c2c(-n3cnc(-c4cnn(C)c4)c3)ccnc21
4. CC(C)Oc1cc(OCC(=O)O)cc(C(=O)N(CCC(N)=O)C(=O)Nc2ccc(C(=O)O)cc2OC(C)C)c1
5. CCOC(=O)c1cc2c(n1Cc1cccc(OC)c1)-c1oncc1CC2
6. N#Cc1c(N)nn(C(=O)c2ccc(NC(=O)c3ccccn3)cc2)c1-c1ccc(Cl)cc1

Result:
1. 5.23 µM
2. 6.77 µM
3. 15.4 µM
4. > 100 µM
5. 17.9 µM
6. 8.65 µM
